This listing pairs molecules with measured solubility kinetic.
test settings: buffer; pH 7.4; 200.0 µM

Here is how some molecules turned out for solubility kinetic.
molecule=O=C1C(Cl)=C(NCCN2CCOCC2)C(=O)c2ccccc21 test_result="> 48.1 µg/mL"
molecule=COc1ccc(C(=O)NC2=NCCS2)cc1 test_result="> 35.4 µg/mL"
molecule=CCN(CCO)C(=O)c1ccc2oc(Cc3ccc(Cl)cc3)nc2c1 test_result="41.5 µg/mL"
molecule="CC(C)C(NC(=O)c1ccc([N+](=O)[O-])cc1Cl)C(=O)N1CCCC1 (stereo unspecified)" test_result="> 53.1 µg/mL"
molecule=CCOc1cccc(C(=O)Nc2ccc3oc(-c4cccnc4)nc3c2)c1 test_result="< 0.3 µg/mL"

Name the recorded solubility kinetic for CC1Sc2ccc(C(=O)NCc3ccccn3)cc2NC1=O (stereo unspecified) . 45.6 µg/mL

Record: CC(N=Cc1c(O)c2ccccc2oc1=O)C(=O)O (stereo unspecified) > 39.2 µg/mL

Record: COC(=O)COc1cccc2c(=O)n(CC(=O)N3CCC(C)CC3)ccc12 > 55.9 µg/mL

Record: O=C(CCl)N(C1CCCC1)C1CCS(=O)(=O)C1 (stereo unspecified) > 42 µg/mL

Record: COCCSc1ccccc1C(=O)Nc1cc([N+](=O)[O-])ccc1OC 4.1 µg/mL

Record: O=C(O)C1CCCN(S(=O)(=O)c2ccccc2[N+](=O)[O-])C1 (stereo unspecified) 36.5 µg/mL
